- measurement.description: Cytotoxicity against HeLa cells (MTS assay)
- Format: cell-based
- condition.set: human, 2000 cells/well, 10 nM to 200 μM, read-out: 1050 (cytotoxicity)
- Experimental: FIG. 4J is the cytotoxicity of compound 8 against HeLa cells seeds at a density of 2000 cells/well is a 96-well plate; FIG. 4I is the ROS with compound 8. The experiment was performed in duplicate. Error bars were determined from the calculated mean and standard deviation (Prism 5.0a, GraphPad Software, Inc.). […] The assay was performed for 3 days, and the relative cell density was determined by an MTS assay (Promega CellTiter 96® AQueous Non-Radioactive Cell Proliferation Assay).
experimental.readout: IC50 at 3 days (µM)
Number only, in µM; omit the unit.

Problem: Look at this compound and give its reported IC50 at 3 days. C=CCCOc1cc2oc3cc(=O)c(Cl)cc-3c(-c3ccccc3C)c2cc1Cl
Result: 43
